tested on: SW480; test: MTS proliferation assay; type: cell-based, human; conditions: Homo sapiens, SW480, 72 h
assayMetric: IC50

# smilesEntry, measValue
measured = [
    ("C[C@@]1(C(=O)Nc2ccc(F)nc2)CCCN1c1nc(Nc2cc(C3CC3)n[nH]2)c2cccn2n1", "4.89 µM"),
]
